Measured endpoint: melting point

Molecule | Measured endpoint | Result
C[C@H](NS(=O)(=O)c1ccc(-c2c(C#N)c3cnc(OC(F)F)nc3n2C2CCC2)nc1)C(F)(F)F | melting point | 172 to 174 °C
CSc1cnc2c(c1)c(C(N)=O)c(-c1ccc(S(=O)(=O)NC(C)(C)C(F)(F)F)cc1)n2C1CCC1 | melting point | 204 to 205 °C
C[C@H](NS(=O)(=O)c1ccc(-c2c(C(N)=O)c3cc(C(F)F)cnc3n2C2CCC2)nc1)C(F)(F)F | melting point | 206 to 208 °C
Cc1ccc2c(C#N)c(-c3ccc(S(=O)(=O)NC4CCC4)cn3)n(C3CCC3)c2n1 | melting point | 151 to 160 °C
Cc1cnc2c(c1)c(C#N)c(-c1ccc(S(=O)(=O)N[C@@H](C)C(F)(F)F)cn1)n2-c1cccc(F)c1 | melting point | 238 to 240 °C
Cc1cnc2c(c1)c(C#N)c(-c1ccc(S(=O)(=O)N[C@@H](C)C(F)(F)F)cc1)n2C | melting point | 165 to 170 °C
Cc1cnc2c(C#N)c(-c3ccc(S(=O)(=O)N[C@@H](C)C(F)(F)F)cn3)n(-c3cncnc3)c2c1 | melting point | 229 to 230 °C
C[C@H](NS(=O)(=O)c1ccc(-c2c(C#N)c3cc(C(F)F)cnc3n2C2CCC2)nc1)C(F)(F)F | melting point | 158 to 159 °C
N#Cc1c(-c2ncc(S(=O)(=O)NC(CF)CF)cn2)n(C2CCC2)c2nc(OC(F)F)ccc12 | melting point | 234 to 236 °C
COc1cc2c(C#N)c(-c3ccc(S(=O)(=O)N[C@H](C)C(F)(F)F)cn3)n(C3CCC3)c2nc1C | melting point | 175 to 177 °C
NC(=O)c1c(-c2ccc(S(=O)(=O)NC3(C(F)(F)F)CC3)cn2)n(C2CCCCC2)c2ncc(C(F)(F)F)cc12 | melting point | 272 to 275 °C
CC(C)(NS(=O)(=O)c1ccc(-c2c(C(N)=O)c3cc(C(F)(F)F)cnc3n2C2CCCCC2)cc1)C(F)(F)F | melting point | 280 to 283 °C
Cc1cnc2c(C#N)c(-c3ccc(S(=O)(=O)N[C@@H](C)C(F)(F)F)cn3)n(-c3ccncc3)c2c1 | melting point | 303 to 305 °C
Cc1cnc2c(C#N)c(-c3ccc(S(=O)(=O)N[C@@H](C)C(F)(F)F)cn3)n(-c3ccnnc3)c2c1 | melting point | 283 to 285 °C
N#Cc1cnc2c(c1)c(C#N)c(-c1ccc(S(=O)(=O)NC3(C(F)(F)F)CC3)cc1)n2C1CCC1 | melting point | 231 to 233 °C
CC(C)NS(=O)(=O)c1ccc(-c2c(C#N)c3cccnc3n2C2CCC2)cc1 | melting point | 198 to 200 °C
Cc1cnc2c(c1)c(C#N)c(-c1ccc(S(=O)(=O)N[C@@H](C)C(F)(F)F)cn1)n2-c1cccnc1 | melting point | 205 to 207 °C
C[C@H](NS(=O)(=O)c1ccc(-c2c(C#N)c3cc(C#N)cnc3n2C2CCC2)cc1)C(F)(F)F | melting point | 241 to 243 °C
COc1cnc2c(c1)c(C(N)=O)c(-c1ccc(S(=O)(=O)N[C@@H](C)C(F)(F)F)cn1)n2C1CCCC1 | melting point | 263 to 264 °C
C[C@H](NS(=O)(=O)c1ccc(-c2c(C#N)c3cc(C(F)(F)F)cnc3n2C2CCC2)cc1)C(F)(F)F | melting point | 218 to 220 °C
C[C@@H](NS(=O)(=O)c1ccc(-c2c(C#N)c3cc(C#N)cnc3n2C2CCC2)nc1)C(F)(F)F | melting point | 202 to 203 °C
N#Cc1c(-c2ccc(S(=O)(=O)NC3CCC3)cn2)n(C2CCC2)c2ncc(Cl)cc12 | melting point | 178 to 180 °C
C[C@H](NS(=O)(=O)c1ccc(-c2c(C#N)c3cnc(Cl)cc3n2C2CCCC2)cc1)C(F)(F)F | melting point | 238 to 240 °C
Cc1cnc2c(C#N)c(-c3ncc(S(=O)(=O)N[C@@H](C)C(F)(F)F)cn3)n(C3CCC3)c2c1 | melting point | 268 to 269 °C
Cc1ccc2c(C#N)c(-c3ccc(S(=O)(=O)NC4(C(F)(F)F)CC4)cc3)n(C3CCC3)c2n1 | melting point | 205 to 212 °C
CC(C)(C)NS(=O)(=O)c1ccc(-c2c(C#N)c3cc(C(F)(F)F)cnc3n2CC2CC2)nc1 | melting point | 179 to 180 °C
N#Cc1c(-c2ccc(S(=O)(=O)NC(CF)CF)cc2)n(C2CCC2)c2ncc(C3CC3)cc12 | melting point | 225 to 230 °C
Cc1cnc2c(c1)c(C#N)c(-c1ccc(S(=O)(=O)N[C@@H](C)C(F)(F)F)cn1)n2-c1ccncn1 | melting point | 233 to 235 °C
C[C@H](NS(=O)(=O)c1ccc(-c2c(C#N)c3cc(O)cnc3n2C2CCC2)nc1)C(F)(F)F | melting point | 240 to 242 °C
CC(C)(NS(=O)(=O)c1ccc(-c2c(C(N)=O)c3cc(C(F)F)cnc3n2C2CCC2)nc1)C(F)(F)F | melting point | 205 to 207 °C

Data credit: patent US9593108B2
